Procedure details: enzyme kinetic measurements with purified protein
Type: biochemical
Measurement parameters: relative values
Protocol: The high-throughput herbicide degradation enzyme assay was designed to assay the enzymatic activity of the engineered proteins towards various herbicides using crude bacterial extract. The engineered protein's oxygenase activity (that is, its enzymatic activity) was measured by an end point colorimetric assay utilizing detection of phenol products through measurement of absorbance at 510 nm from 4-aminoantipyrine and potassium ferricyanide. […]
Lab note: cut-off is 400. Strictly less in Vmax Fenoxaprop is Satisfied. Exactly 400 or more is Not satisfied.

Below are worked cases with known answers.
{"Molecule": "MON-HT53: engineered oxygenase protein, amino acid sequence SEQ ID NO:7 (protein) MHAALSPLSQRFERIAVQPLTGVLGAEITGVDLREPLSDSTWNEILDAFHTYQVIYFPGQAITNEQHIAFSRRFGPVDPVPLLKSIEGYPEVQMIRREANESGRVIGDDWHSDSTFLDAPPAAVVMRAIDVPEHGGDTGFLSMYTAYDALSDGLKKLISGLNVVHSATRVFGSLYQAQNRRFSNTSVKVMDVDAGDRETVHPLVVTHPGSGRKGLYVNQVYCQRIEGMSEKESEPLLSFLFAHATKPEFTCRVRWKKDQVLVWDNLCTMHYAINDYHGQTRILHRTTVGGVRPAR", "Discrete label": "Not satisfied"}
{"Molecule": "MON-HT55: engineered oxygenase protein, amino acid sequence SEQ ID NO:11 (protein) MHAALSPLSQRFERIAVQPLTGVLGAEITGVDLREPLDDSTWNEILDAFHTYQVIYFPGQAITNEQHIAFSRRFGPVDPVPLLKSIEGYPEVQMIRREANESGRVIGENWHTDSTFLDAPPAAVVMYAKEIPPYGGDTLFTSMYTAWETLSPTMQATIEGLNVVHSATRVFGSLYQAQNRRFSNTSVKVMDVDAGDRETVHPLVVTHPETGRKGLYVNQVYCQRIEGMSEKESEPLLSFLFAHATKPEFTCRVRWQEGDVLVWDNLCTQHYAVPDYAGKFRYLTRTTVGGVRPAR", "Discrete label": "Not satisfied"}

Prompt: # check: Vmax Fenoxaprop < 400 for MON-HT54: engineered oxygenase protein, amino acid sequence SEQ ID NO:9 (protein) MHAALSPLSQRFERIAVQPLTGVLGAEITGVDLREPLDDSTWNEILDAFHTYQVIYFPGQAITNEQHIAFSRRFGPVDPVPLLKSIEGYPEVQMIRREANESGRVLGDDWHTDSTFLDAPPAAVVMRAIDVPEHGGDTGFLSMYTAYDALSDGLKKLISGLNVVHSATRVFGSLYQAQNRRFSNTSVKVMDVADGDRETVHPLVVTHPGSGRKGLYVNQVYCQRIEGMSEKESEPLLSFLFAHATKPEFTCRVRWKKDQVVVWDNLCTMHYAINDYHGQTRILHRTTVGGVRPAR
Completion: Not satisfied

Prompt: # check: Vmax Fenoxaprop < 400 for MON-HT51: engineered oxygenase protein, amino acid sequence SEQ ID NO:1 (protein) MHAALSPLSQRFERIAVQPLTGVLGAEITGVDLREPLSDSTWNEILDAFHTYQVIYFPGQAITNEQHIAFSRRFGPVDPVPLLKSIEGYPEVQMIRREANESGRVIGDDWHTDSSFLDAPPAAVVMRAIDVPEHGGDTGFLSMYTAYDALSDGLKKLISGLNVVHSATRVFGSLYQAQNRRFSNTSVKVMDVADGDRETVHPLVVTHPGSGRKGLYVNQVYCQRIEGMSEKESEPLLSFLFAHATKPEFTCRVRWKKDQVLVWDNLCTMHYAINDYHGQTRILHRTTVGGVRPAR
Completion: Satisfied

Prompt: # check: Vmax Fenoxaprop < 400 for MON-HT52: engineered oxygenase protein, amino acid sequence SEQ ID NO:4 (protein) MHAALSPLSQRFERIAVQPLTGVLGAEITGVDLREPLDDSTWNEILDAFHTYQVIYFPGQAITNEQQIAFSRRFGPVDPVPLLKSIEGYPEVQMIRREANESGRVIGDDWHTDSTFLDAPPAAVVMRAIDVPEHGGDTGFLSMYTAYDALSDGLKKLISGLNVVHSATRVFGSLYQAQNRRFSNTSVKVMDVDAGDRETVHPLVVTHPGSGRKGLYVNQVYCQRIEGMSEKESEPLLSFLFAHATKPEFTCRVRWKKDQVLVWDNLCTMHYAINDYHGQTRILHRTTVGGVRPAR
Completion: Not satisfied
